Hey, just so you know, these numbers are from ChEMBL document CHEMBL1201862.

- Tested on: KM12
- TEST DESCRIPTION: NCI tumour cell line growth inhibition, 48 h
Activity calls are given as the source filed them. No stated cut-off is given here; in the data, active = GI50 up to about 1.1 µM and inactive = higher.
Assign a class; possible classes are 1.0 = active, 0.0 = inactive

Consider the following illustrative entries.
| COMPOUND | MEASURED ON | ANSWER LABEL |
| --- | --- | --- |
| C=C(CC[C@@H](C)[C@H]1CC[C@H]2[C@@H]3C[C@@H](O)[C@H]4C[C@@H](O)CC[C@]4(CO)[C@H]3CC[C@]12C)C(C)C | KM12 | 0.0 |
| N#CCC(=O)N1CCCCCCC1 | KM12 | 0.0 |
| CCCc1cn2c(/C=N/N=C(N)N)c(-c3c(OC)ccc(OC)c3[N+](=O)[O-])nc2s1 | KM12 | 0.0 |

Now take the following compound into account.
q: What call does the record list for C[C@@H]1C[C@H](O)[C@]2(O)O[C@@H]3C[C@@]4(C=O)[C@@H](CC=C5[C@@H]4CC[C@]4(C)[C@@H](C6=CC(=O)OC6)CC[C@]54O)C[C@H]3O[C@@H]2O1 ?
a: 1.0

====

GI50 reference
- Test system: NCI-H23
- TEST DESCRIPTION: NCI tumour cell line growth inhibition, 48 h
Active and inactive are the calls of the source. Rule as the data show it: active = GI50 up to about 1.1 µM and inactive = higher.

Sample records with GI50:
| COMPOUND | MEASURED ON | GI50 |
| --- | --- | --- |
| CCCC(=O)OC1CC(n2cc(F)c(=O)[nH]c2=O)OC1COP(=O)(OCC(Cl)(Cl)Cl)OCC(Cl)(Cl)Cl (centres undefined) | NCI-H23 | 11 µM (inactive) |
| N#CCC1(c2ccc(Cl)cc2)NC(=O)c2ccccc21 (centres undefined) | NCI-H23 | > 100 µM (inactive) |
| CCCCSCCC(N)P(=O)(O)O (centres undefined) | NCI-H23 | > 100 µM (inactive) |

q: Return GI50 for the following compound: C=CCN(c1cc(OC)c(NC(C)=O)cc1[N+](=O)[O-])S(C)(=O)=O
a: > 100 µM (inactive)

q: Return GI50 for the following compound: COc1cccc(/C=C/c2cnc3ccccc3n2)c1OC
a: 31.9 µM (inactive)

q: Return GI50 for the following compound: Cc1ccc(S(=O)(=O)NC(CN)C(=O)O)cc1 (centres undefined)
a: > 100 µM (inactive)

====

GI50 reference
- Tested on: UACC-62
- TEST DESCRIPTION: NCI tumour cell line growth inhibition, 48 h
Active and inactive are the calls of the source. Rule as the data show it: active = GI50 up to about 1.1 µM and inactive = higher.

| COMPOUND | GI50 |
| --- | --- |
| NCCCCCC(CCN)SCC1OC(n2cnc3c(N)ncnc32)C(O)C1O (centres undefined) | 537 µM (inactive) |
| COc1ccccc1-c1cc(O)c2cc(C)cnc2n1 | 31.8 µM (inactive) |

q: Return GI50 for the following compound: CC(C)(Oc1ccc(-c2cccc3ccccc23)cc1)C(=O)O
a: > 100 µM (inactive)

q: Return GI50 for the following compound: O=C(NC12CC3CC(CC(F)(C3)C1)C2)c1ccccc1
a: > 100 µM (inactive)

====

- System: MOLT-4
- TEST DESCRIPTION: NCI tumour cell line growth inhibition, 48 h
Active and inactive are the calls of the source. Cut-off read from the data, not from the text of the source: active = GI50 up to about 1.1 µM and inactive = higher.
MEASURED METRIC: GI50

Sample records with GI50:
| COMPOUND | GI50 |
| --- | --- |
| O=C(CSc1nc2ccccc2s1)c1sc2sc3ccccc3[n+]2c1[O-] | > 100 µM (inactive) |
| ClCCc1ccccc1CC1=NCCc2ccccc21 | 26.9 µM (inactive) |
| CCCc1cn2c(/C=N/N=C(N)N)c(-c3c(OC)ccc(OC)c3[N+](=O)[O-])nc2s1 | 1.94 µM (inactive) |
| Cc1ccc2c(n1)NC(=O)C(Cc1ccccc1)(N=[N+]=[N-])C2=O (configuration not stated) | > 100 µM (inactive) |
| COc1ccc(C2OC(c3ccncc3)=NN2C)cc1OC (configuration not stated) | 75.7 µM (inactive) |
| CC(C)CC(O)P(=O)(O)O.NC1CCCCC1 (configuration not stated) | > 100 µM (inactive) |

q: Supply GI50 measured with MOLT-4 for Nc1nc(Cl)cc(NCC2(CO)CC(CCCc3ccccc3)C2)n1 (configuration not stated) .
a: > 26.9 µM (inactive)
